The values you see were collected from patent US10787413B2.

Tested on: PC3 prostate cancer cell
experimental_protocol: MTT cell viability assay, PC3 prostate cancer cell
Format: cell-based
assay_conditions: PC-3, treated 24 hours; read-out: IC50 24 hours
measure: IC50 (µM)

Worked examples, 9 molecules total:
[
  {
    "molecule": "CC(CO)(CO)C(=O)Oc1ccc(/C=C/C(=O)/C=C(O)/C=C/c2ccc(OC(=O)C(C)(CO)CO)cc2)cc1 [Compound 23a]",
    "assayed_system": "PC3 prostate cancer cell",
    "reading": 8.46
  },
  {
    "molecule": "CCC(CO)(CO)C(=O)Oc1cc(/C=C/C(=O)/C=C(O)/C=C/c2ccc(OC)c(O)c2)ccc1OC",
    "assayed_system": "PC3 prostate cancer cell",
    "reading": 15.9
  },
  {
    "molecule": "COc1cc(/C=C/C(=O)C(Cc2ccccc2)(Cc2ccccc2)C(=O)/C=C/c2ccc(OC(=O)C(C)(CO)CO)c(OC)c2)ccc1OC(=O)C(C)(CO)CO [Compound 35c]",
    "assayed_system": "PC3 prostate cancer cell",
    "reading": 17.6
  },
  {
    "molecule": "CCOc1cc(/C=C/C(=O)/C=C(O)/C=C/c2ccc(OC(=O)C(CC)(CO)CO)c(OCC)c2)ccc1OC(=O)C(CC)(CO)CO",
    "assayed_system": "PC3 prostate cancer cell",
    "reading": 8.18
  },
  {
    "molecule": "CCC(CO)(CO)C(=O)Oc1ccc(/C=C/C(=O)/C=C(O)/C=C/c2ccc(O)c(OC)c2)cc1OC [Compound 22b]",
    "assayed_system": "PC3 prostate cancer cell",
    "reading": 13.8
  },
  {
    "molecule": "COc1cc(/C=C/C(=O)/C=C(O)/C=C/c2cc(OC)c(OC(=O)C(C)(CO)CO)c(OC)c2)cc(OC)c1OC(=O)C(C)(CO)CO",
    "assayed_system": "PC3 prostate cancer cell",
    "reading": 7.79
  },
  {
    "molecule": "COc1cc(/C=C/C(=O)C(COC(C)=O)(COC(C)=O)C(=O)/C=C/c2ccc(OC(=O)C(C)(CO)CO)c(OC)c2)ccc1OC(=O)C(C)(CO)CO",
    "assayed_system": "PC3 prostate cancer cell",
    "reading": 65.2
  },
  {
    "molecule": "CCC(CO)(CO)C(=O)Oc1ccc(/C=C/C(=O)CC(=O)/C=C/c2ccc(OC(=O)C(CC)(CO)CO)c(OC(F)(F)F)c2)cc1OC(F)(F)F",
    "assayed_system": "PC3 prostate cancer cell",
    "reading": 37
  },
  {
    "molecule": "CCOc1cc(/C=C/C(=O)/C=C(O)/C=C/c2ccc(OC(=O)C(C)(CO)CO)c(OCC)c2)ccc1OC(=O)C(C)(CO)CO",
    "assayed_system": "PC3 prostate cancer cell",
    "reading": 9.38
  }
]

1: CCC(CC)(C(=O)/C=C/c1ccc(OC(=O)C(C)(CO)CO)c(OC)c1)C(=O)/C=C/c1ccc(OC(=O)C(C)(CO)CO)c(OC)c1 [Compound 35b]
2: COc1cc(/C=C/C(=O)CC(=O)/C=C/c2ccc(OC(=O)C(CO)(CO)CO)c(OC)c2)ccc1O [Compound 38a]
3: C=CCC(CC=C)(C(=O)/C=C/c1ccc(OC(=O)C(C)(CO)CO)c(OC)c1)C(=O)/C=C/c1ccc(OC(=O)C(C)(CO)CO)c(OC)c1 [Compound 35e]
Ask: Order by IC50, ascending. Answer format: the labels, ordered as requested.
Reply: 3, 1, 2
(3: 4.24 µM, 1: 8.7 µM, 2: 46.5 µM)
